Target: hTMPK (thymidylate kinase) (Homo sapiens)
Sequence (P23919 2-212): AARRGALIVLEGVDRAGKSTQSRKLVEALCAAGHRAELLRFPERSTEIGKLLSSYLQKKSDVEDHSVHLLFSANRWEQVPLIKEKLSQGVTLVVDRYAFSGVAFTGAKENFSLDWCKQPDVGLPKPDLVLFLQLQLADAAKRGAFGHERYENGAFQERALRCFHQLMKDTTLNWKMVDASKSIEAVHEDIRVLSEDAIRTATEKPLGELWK
Experiment: NADH-coupled
Format: biochemical
EXPERIMENTAL ENDPOINT: IC50 (µM)
Dear colleague, please return just the value in µM, with no unit written.

The reported IC50 value, hTMPK (thymidylate kinase) (Homo sapiens), for CC(C)(C)OC(=O)N1CCN(C(=O)Cn2sc3ccccc3c2=O)CC1 [JMF2977] reads 0.5
